Target: SULT1E1 (Homo sapiens, UniProt P49888)
Construct: made in house; host or cells: Escherichia coli
Sequence (P49888 whole entry): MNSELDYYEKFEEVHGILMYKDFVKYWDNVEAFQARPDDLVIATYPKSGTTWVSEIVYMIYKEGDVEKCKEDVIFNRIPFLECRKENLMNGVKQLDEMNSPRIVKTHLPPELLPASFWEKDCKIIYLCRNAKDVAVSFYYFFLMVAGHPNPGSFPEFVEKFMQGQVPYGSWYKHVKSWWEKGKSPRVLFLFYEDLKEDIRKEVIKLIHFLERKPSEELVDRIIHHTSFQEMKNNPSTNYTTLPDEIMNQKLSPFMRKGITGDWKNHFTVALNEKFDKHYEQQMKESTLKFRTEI
Assay: Inhibition of 3-OH-BaP sulfotransferase activity by OH-PCBs with cDNA-expressed SULT1E1
Format: biochemical
Settings: IC50 SULT1E1, 1.0 μM 3-OH-BaP; mean of duplicates

# structure-as-smiles, IC50 [µM]
data = [
    ("Oc1ccc(-c2cc(Cl)c(Cl)c(Cl)c2Cl)cc1Cl", 6.97),
    ("Oc1c(Cl)cc(-c2c(Cl)cc(Cl)cc2Cl)cc1Cl", 16.7),
    ("Oc1c(Cl)cc(-c2ccc(Cl)c(Cl)c2)cc1Cl", 1.32),
]
